These data points were gathered from patent US20200316038A1.

So I've got a bunch of compounds here, and I need their NAGS expression, Fold change (Log 2) vs untreated values.
Test system: NAGS
Conditions: RNA-seq, primary human hepatocytes, compounds that significantly increase NAGS expression
Where a name gives a salt, the structure may show the parent alone.
The figure you give is taken to be in Log 2; do not add the unit.

The measured NAGS expression, Fold change (Log 2) vs untreated associated with O=C(N[C@H]1CN2CCC1CC2)c1cc2cccc(Cl)c2s1 [EVP-6124 (hydrochloride) (encenicline), encenicline] reads 0.75

NAGS expression, Fold change (Log 2) vs untreated reported for this compound C[C@]12C=CC(=O)C=C1CC[C@@H]1[C@@H]2C(=O)C[C@@]2(C)[C@H]1CC[C@]2(O)C(=O)CO [prednisone] : 1

Per the records, this compound ( CN1CCN(CCCN2c3ccccc3Sc3ccc(C(F)(F)F)cc32)CC1 [TFP, Trifluoperazine] ) has NAGS expression, Fold change (Log 2) vs untreated equal to 0.58

Reported NAGS expression, Fold change (Log 2) vs untreated for CCOC(=O)C1=C(COCCN)NC(C)=C(C(=O)OC)C1c1ccccc1Cl (stereo not shown) [Amlodipine Besylate] was 0.73

Form field NAGS expression, Fold change (Log 2) vs untreated, entry C=C1/C(=C\C=C2/CCC[C@]3(C)[C@@H]([C@H](C)CCCC(C)(C)O)CC[C@@H]23)C[C@@H](O)C[C@@H]1O [Calcitriol] : 1.2

Note to self: NAGS expression, Fold change (Log 2) vs untreated recorded for CN(C)[C@@H]1C(O)=C(C(N)=O)C(=O)[C@@]2(O)C(O)=C3C(=O)c4c(O)c(NC(=O)CN5CCCC5)cc(F)c4C[C@H]3C[C@@H]12 [TP-434 (Eravacycline), Eravacycline] was 1.5

Reported NAGS expression, Fold change (Log 2) vs untreated for NCC(=O)Nc1ccc(-n2nc(C(F)(F)F)cc2-c2ccc3c(ccc4ccccc43)c2)cc1 [OSU-03012] was 1.03

Entry under test: NS(=O)(=O)C#Cc1ccccc1 [Pifithrin-μ] . Its NAGS expression, Fold change (Log 2) vs untreated was 1.18

Quick note, NAGS expression, Fold change (Log 2) vs untreated for CNC(=O)Nc1ccc(-c2nc(N3CC4CCC(C3)O4)c3cnn(C4CCC5(CC4)OCCO5)c3n2)cc1 [WYE-125132 (WYE-132)] landed at 0.64

Sure, the documented NAGS expression, Fold change (Log 2) vs untreated for COc1ccc2c(c1)c(C1=C(c3c[nH]c4ccccc34)C(=O)NC1=O)cn2CCCN(C)C [GO6983] is 0.7

Documented NAGS expression, Fold change (Log 2) vs untreated of COc1cccc2c1C(=O)c1c(O)c3c(c(O)c1C2=O)C[C@@](O)(/C(CO)=N/NC(=O)CCCCCN1C(=O)C=CC1=O)C[C@@H]3O[C@H]1C[C@H](N)[C@H](O)[C@H](C)O1 [INNO-206 (aldoxorubicin), aldoxorubicin] : 1.63

Reported NAGS expression, Fold change (Log 2) vs untreated for Cc1cc(C)c(/C=C2\C(=O)Nc3ccccc32)[nH]1 [Semaxanib] was 2

Value of measured NAGS expression, Fold change (Log 2) vs untreated for the entry CCCC(=O)O[C@@H]1[C@@H](C)[C@@]2(O)[C@@H](C=C(CO)C[C@]3(O)C(=O)C(C)=C[C@@H]23)[C@@H]2C(C)(C)[C@]12OC(=O)CCC [Phorbol 12,13-dibutyrate] : 0.62
